Test system: P. falciparum strain 3D7
Experiment: P. falciparum growth inhibition assay
Format: cell-based, Plasmodium falciparum
Details: Plasmodium falciparum, 3D7, read-out: Inhibition of P. falciparum EC50, 3D7 culture, ring stage 8–10 h, 52 h growth, SYBR green
The threshold is 50 µM. Values of EC50 beneath it are tagged label 1; values meeting or exceeding it are tagged label 0.

Would you please look over these solved cases?
# molecular.string, system, group.label
records = [
    ("Fc1ccc(-n2cc(COc3ccnc4cc(Cl)ccc34)nn2)cc1F", "P. falciparum strain 3D7", "label 1"),
    ("Cc1ccccc1-n1cc(COc2ccnc3cc(Cl)ccc23)nn1", "P. falciparum strain 3D7", "label 0"),
]

Now look at this entry.
[in] Does this compound meet the criterion EC50 < 50 µM? `COc1ccc(-n2cc(COc3ccnc4cc(Cl)ccc34)nn2)cc1`
[out] label 0

====

Tested on: P. falciparum strain 3D7
Experiment: P. falciparum growth inhibition assay
Assay type: cell-based, Plasmodium falciparum
Settings: Plasmodium falciparum, 3D7, read-out: Inhibition of P. falciparum EC50, 3D7 culture, ring stage 8–10 h, 52 h growth, SYBR green
readout.kind: EC50 (µM)
Number in µM, nothing else.

Sample records with EC50:
# molecular.string, EC50 (µM)
measured = [
    ("O=[N+]([O-])c1ccc(-n2cc(COc3ccnc4cc(Cl)ccc34)nn2)cc1", 49.9),
    ("Fc1ccccc1-n1cc(COc2ccnc3cc(Cl)ccc23)nn1", 49.5),
]

[in] Tell me the measured EC50 of `FC(F)(F)c1cccc(-n2cc(COc3ccnc4cc(Cl)ccc34)nn2)c1` , please.
[out] 49.5
